Data credit: patent US6358921B1

# assay method text: Displacement of dansyl-polymyxin from LPS
# Assay type: binding, P. aeruginosa
# conditions: Table 10; read-out: LPS binding activity: peptide concentration to displace 50% of dansyl-polymyxin from LPS
Where a SMILES comes first, the peptide text is derived from it. [ ]: non-standard residue; d: D form. Orn = NCCC[C@H](N)C(=O)O
reported property: IC50 (µM)

INSERT INTO assay_data (molecule, output_unit, value) VALUES
  ('CC(C)C[C@@H]1NC(=O)[C@H](CCCN)NC(=O)[C@H](C(C)C)NC(=O)[C@@H]2CCCN2C(=O)[C@@H](Cc2ccccc2)NC(=O)[C@H](CC(C)C)NC(=O)[C@H](CCCN)NC(=O)[C@H](C(C)C)NC(=O)[C@H](CCCN)NC(=O)[C@@H]2CCCN2C(=O)[C@@H](Cc2ccccc2)NC(=O)[C@H](CCCN)NC1=O [GS12FO, FPVOLOFPOVOL] (cyclo(L[Orn][dF]P[Orn]V[Orn]L[dF]PV[Orn]))', 'µM', 105),
  ('CC(C)C[C@@H]1NC(=O)[C@H](CCCN)NC(=O)[C@H](CC(C)C)NC(=O)[C@@H]2CCCN2C(=O)[C@@H](Cc2ccccc2)NC(=O)[C@H](CC(C)C)NC(=O)[C@H](CCCN)NC(=O)[C@H](CC(C)C)NC(=O)[C@H](CCCN)NC(=O)[C@@H]2CCCN2C(=O)[C@@H](Cc2ccccc2)NC(=O)[C@H](CCCN)NC1=O [GS12FO/LL, FPLOLOFPOLOL] (cyclo(L[Orn]L[Orn][dF]P[Orn]L[Orn]L[dF]P))', 'µM', 44),
  ('CC(C)C[C@@H]1NC(=O)[C@H](CCCCN)NC(=O)[C@H](C(C)C)NC(=O)[C@@H]2CCCN2C(=O)[C@@H](Cc2ccc(O)cc2)NC(=O)[C@H](CC(C)C)NC(=O)[C@H](CCCCN)NC(=O)[C@H](C(C)C)NC(=O)[C@H](CCCCN)NC(=O)[C@@H]2CCCN2C(=O)[C@@H](Cc2ccc(O)cc2)NC(=O)[C@H](CCCCN)NC1=O [GS12]', 'µM', 46),
  ('CC(C)C[C@@H]1NC(=O)[C@H](CCCCN)NC(=O)[C@H](C(C)C)NC(=O)[C@@H]2CCCN2C(=O)[C@@H](Cc2ccccc2)NC(=O)[C@H](CC(C)C)NC(=O)[C@H](CCCCN)NC(=O)[C@H](C(C)C)NC(=O)[C@H](CCCCN)NC(=O)[C@@H]2CCCN2C(=O)[C@@H](Cc2ccccc2)NC(=O)[C@H](CCCCN)NC1=O [GS12F]', 'µM', 127),
  ('CC(C)C[C@@H]1NC(=O)[C@H](CCCCN)NC(=O)[C@@H]2CCCN2C(=O)[C@@H](Cc2ccc(O)cc2)NC(=O)[C@H](CCCCN)NC(=O)[C@H](C(C)C)NC(=O)[C@H](CCCCN)NC(=O)[C@H](CC(C)C)NC(=O)[C@@H]2CCCN2C(=O)[C@@H](Cc2ccc(O)cc2)NC(=O)[C@H](C(C)C)NC(=O)[C@H](CCCCN)NC1=O [GS12LV]', 'µM', 33);

###

# assay method text: Displacement of dansyl-polymyxin from LPS
# Assay type: binding, P. aeruginosa
# conditions: read-out: LPS binding affinity: peptide concentration to displace 50% of dansyl-polymyxin B from LPS; Tables 1, 4, 7
# Method: In order to determine whether ring size affects the interaction between the peptide and bacterial membranes, we studied the interaction between the GS ring analogs and bacterial lipopolysaccharide (LPS). […] Dansyl-polymixin (DPX) displacement from P. aeruginosa LPS was measured as described (Moore, et al., 1986). […]
reported property: IC50 (µM)

INSERT INTO measurements (molecule, value) VALUES
  ('CC(C)C[C@@H]1NC(=O)[C@H](CCCCN)NC(=O)[C@H](C(C)C)NC(=O)[C@@H]2CCCN2C(=O)[C@@H](Cc2ccc(O)cc2)NC(=O)[C@H](CC(C)C)NC(=O)[C@H](CCCCN)NC(=O)[C@H](C(C)C)NC(=O)[C@H](CCCCN)NC(=O)[C@H](CC(C)C)NC(=O)[C@@H]2CCCN2C(=O)[C@H](Cc2ccc(O)cc2)NC(=O)[C@H](C(C)C)NC(=O)[C@H](CCCCN)NC1=O [GS14Y6]', 20),
  ('CC(C)C[C@@H]1NC(=O)[C@H](CCCCN)NC(=O)[C@H](C(C)C)NC(=O)[C@H](CCCCN)NC(=O)[C@H](CC(C)C)NC(=O)[C@@H]2CCCN2C(=O)[C@@H](Cc2ccc(O)cc2)NC(=O)[C@H](C(C)C)NC(=O)[C@H](CCCCN)NC(=O)[C@@H](CC(C)C)NC(=O)[C@H](CCCCN)NC(=O)[C@H](C(C)C)NC(=O)[C@@H]2CCCN2C(=O)[C@@H](Cc2ccc(O)cc2)NC1=O [GS14L3]', 35),
  ('CC(C)C[C@@H]1NC(=O)[C@H](CCCCN)NC(=O)[C@H](C(C)C)NC(=O)[C@H](CCCCN)NC(=O)[C@@H]2CCCN2C(=O)[C@@H](Cc2ccc(O)cc2)NC(=O)[C@H](CCCCN)NC(=O)[C@H](CC(C)C)NC(=O)[C@H](CCCCN)NC(=O)[C@@H](C(C)C)NC(=O)[C@H](CCCCN)NC(=O)[C@@H]2CCCN2C(=O)[C@@H](Cc2ccc(O)cc2)NC(=O)[C@H](CCCCN)NC1=O [GS14invV2]', 71),
  ('CC(C)C[C@@H]1NC(=O)[C@H](CCCCN)NC(=O)[C@H](C(C)C)NC(=O)[C@H](CCCCN)NC(=O)[C@@H]2CCCN2C(=O)[C@@H](Cc2ccc(O)cc2)NC(=O)[C@H](CCCCN)NC(=O)[C@H](CC(C)C)NC(=O)[C@H](CCCCN)NC(=O)[C@H](C(C)C)NC(=O)[C@H](CCCCN)NC(=O)[C@@H]2CCCN2C(=O)[C@@H](Cc2ccc(O)cc2)NC(=O)[C@H](CCCCN)NC1=O [GS14inv]', 14),
  ('CC(C)C[C@@H]1NC(=O)[C@H](CCCCN)NC(=O)[C@H](CC(C)C)NC(=O)[C@@H]2CCCN2C(=O)[C@@H](Cc2ccc(O)cc2)NC(=O)[C@H](CC(C)C)NC(=O)[C@@H](CCCCN)NC(=O)[C@H](CC(C)C)NC(=O)[C@H](CCCCN)NC(=O)[C@H](CC(C)C)NC(=O)[C@@H]2CCCN2C(=O)[C@@H](Cc2ccc(O)cc2)NC(=O)[C@H](CC(C)C)NC(=O)[C@H](CCCCN)NC1=O [V3/L3]', 46),
  ('CC(C)C[C@@H]1NC(=O)[C@H](CCCCN)NC(=O)[C@H](C(C)C)NC(=O)[C@@H]2CCCN2C(=O)[C@@H](Cc2ccc(O)cc2)NC(=O)[C@H](CC(C)C)NC(=O)[C@H](CCCCN)NC(=O)[C@H](C(C)C)NC(=O)[C@H](CCCCN)NC(=O)[C@H](CC(C)C)NC(=O)[C@@H]2CCCN2C(=O)[C@@H](Cc2ccc(O)cc2)NC(=O)[C@@H](C(C)C)NC(=O)[C@H](CCCCN)NC1=O [GS14V5]', 33),
  ('CC(C)C[C@@H]1NC(=O)[C@H](CCCCN)NC(=O)[C@H](C(C)C)NC(=O)[C@@H]2CCCN2C(=O)[C@@H](Cc2ccc(O)cc2)NC(=O)[C@H](CC(C)C)NC(=O)[C@@H](CCCCN)NC(=O)[C@H](C(C)C)NC(=O)[C@H](CCCCN)NC(=O)[C@H](CC(C)C)NC(=O)[C@@H]2CCCN2C(=O)[C@@H](Cc2ccc(O)cc2)NC(=O)[C@H](C(C)C)NC(=O)[C@H](CCCCN)NC1=O [GS14K11]', 50);

###

Recorded Antibiotic activity, yeast, one value per entry.
# System: yeast
# assay method text: Antibiotic activity, yeast
# Format: cell-based
# conditions: average activity calculated from Table II
Where a SMILES comes first, the peptide text is derived from it. [ ]: non-standard residue; d: D form. Orn = NCCC[C@H](N)C(=O)O
reported property: Antibiotic activity, yeast (µg/mL)

INSERT INTO results (compound, output_unit, value) VALUES
  ('CC(C)C[C@@H]1NC(=O)[C@H](CCCCN)NC(=O)[C@H](C(C)C)NC(=O)[C@@H]2CCCN2C(=O)[C@@H](Cc2ccc(O)cc2)NC(=O)[C@H](CC(C)C)NC(=O)[C@H](CCCCN)NC(=O)[C@H](C(C)C)NC(=O)[C@H](CCCCN)NC(=O)[C@@H]2CCCN2C(=O)[C@@H](Cc2ccc(O)cc2)NC(=O)[C@H](CCCCN)NC1=O [GS12]', 'µg/mL', 42),
  ('CC(C)C[C@@H]1NC(=O)[C@H](CCCCN)NC(=O)[C@@H]2CCCN2C(=O)[C@@H](Cc2ccc(O)cc2)NC(=O)[C@H](CCCCN)NC(=O)[C@H](C(C)C)NC(=O)[C@H](CCCCN)NC(=O)[C@H](CC(C)C)NC(=O)[C@@H]2CCCN2C(=O)[C@@H](Cc2ccc(O)cc2)NC(=O)[C@H](C(C)C)NC(=O)[C@H](CCCCN)NC1=O [GS12LV]', 'µg/mL', 50),
  ('CC(C)C[C@@H]1NC(=O)[C@H](CCCN)NC(=O)[C@H](C(C)C)NC(=O)[C@@H]2CCCN2C(=O)[C@@H](Cc2ccccc2)NC(=O)[C@H](CC(C)C)NC(=O)[C@H](CCCN)NC(=O)[C@H](C(C)C)NC(=O)[C@H](CCCN)NC(=O)[C@@H]2CCCN2C(=O)[C@@H](Cc2ccccc2)NC(=O)[C@H](CCCN)NC1=O [GS12FO, FPVOLOFPOVOL] (cyclo(L[Orn][dF]P[Orn]V[Orn]L[dF]PV[Orn]))', 'µg/mL', 16),
  ('CC(C)C[C@@H]1NC(=O)[C@H](CCCN)NC(=O)[C@H](CC(C)C)NC(=O)[C@@H]2CCCN2C(=O)[C@@H](Cc2ccccc2)NC(=O)[C@H](CC(C)C)NC(=O)[C@H](CCCN)NC(=O)[C@H](CC(C)C)NC(=O)[C@H](CCCN)NC(=O)[C@@H]2CCCN2C(=O)[C@@H](Cc2ccccc2)NC(=O)[C@H](CCCN)NC1=O [GS12FO/LL, FPLOLOFPOLOL] (cyclo(L[Orn]L[Orn][dF]P[Orn]L[Orn]L[dF]P))', 'µg/mL', 16),
  ('CC(C)C[C@@H]1NC(=O)[C@H](CCCCN)NC(=O)[C@H](C(C)C)NC(=O)[C@@H]2CCCN2C(=O)[C@@H](Cc2ccccc2)NC(=O)[C@H](CC(C)C)NC(=O)[C@H](CCCCN)NC(=O)[C@H](C(C)C)NC(=O)[C@H](CCCCN)NC(=O)[C@@H]2CCCN2C(=O)[C@@H](Cc2ccccc2)NC(=O)[C@H](CCCCN)NC1=O [GS12F]', 'µg/mL', 13);
